tested-target: human GR (Homo sapiens)
Construct: U937 cells contain an endogenous glucocorticoid receptor (GR); endogenous in cells; host or cells: U937 cells stably transfected with the TNF-alpha promoter/beta-lactamase reporter
Sequence (P04150 whole entry): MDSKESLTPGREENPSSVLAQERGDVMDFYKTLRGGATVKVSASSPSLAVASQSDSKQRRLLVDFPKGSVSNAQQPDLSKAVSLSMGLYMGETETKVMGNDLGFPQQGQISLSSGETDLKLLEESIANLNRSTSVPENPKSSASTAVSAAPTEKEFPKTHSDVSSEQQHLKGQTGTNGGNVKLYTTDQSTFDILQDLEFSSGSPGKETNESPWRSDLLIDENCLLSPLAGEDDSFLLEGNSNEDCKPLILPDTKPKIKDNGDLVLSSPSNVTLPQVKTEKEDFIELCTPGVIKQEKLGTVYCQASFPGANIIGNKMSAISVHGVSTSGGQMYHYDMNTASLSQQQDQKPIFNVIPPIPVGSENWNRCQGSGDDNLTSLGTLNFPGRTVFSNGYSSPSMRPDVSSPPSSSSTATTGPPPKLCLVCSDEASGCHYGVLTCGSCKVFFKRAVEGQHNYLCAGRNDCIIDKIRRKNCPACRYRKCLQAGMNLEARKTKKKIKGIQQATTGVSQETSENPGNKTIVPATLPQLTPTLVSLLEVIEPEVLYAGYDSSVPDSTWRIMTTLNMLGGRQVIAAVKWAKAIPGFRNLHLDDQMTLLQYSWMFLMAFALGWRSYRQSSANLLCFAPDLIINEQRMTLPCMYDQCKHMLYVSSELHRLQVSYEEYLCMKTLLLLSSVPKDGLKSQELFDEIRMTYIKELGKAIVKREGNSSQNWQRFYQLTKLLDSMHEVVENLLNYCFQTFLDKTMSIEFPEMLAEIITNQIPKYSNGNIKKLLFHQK
measurement-description: Transrepression Assay (GITAR), TNFα-β-lactamase reporter gene in U937 cells
Type: cell-based
condition-description: U-937, U937 cells; activity repressed by 100 nM dexamethasone = 100%; Table 1; read-out: Transrepression U937 Cells GITAR Emax
Source text: Transrepression Assay (GITAR) This assay assesses the ability of test compounds to control transcription from the TNFα-β-lactamase reporter gene in U937 cells, a human myelomonocytic leukemia cell line that naturally expresses the human GR. The assay measures compound dependent-repression of the TNFa promoter linked to a reporter gene. The human U937 cells that had been stablely transfected with the TNF-α promoter driving β-lactamase are used for this assay. […]
measure: Emax (%)

{"columns": ["compound", "tested-target", "measured-value"],
 "data": [
  ["C[C@]12Cc3cnn(-c4ccc(F)cc4)c3C=C1CC[C@@H]2C(=O)N(CCO)Cc1ccccc1CS(=O)(=O)c1ccccc1", "human GR (Homo sapiens)", 35.5],
  ["CCCCN(CC(C)O)C(=O)[C@H]1CCC2=Cc3c(cnn3-c3ccc(F)cc3)C[C@@]21C (stereo partly drawn)", "human GR (Homo sapiens)", 86.8],
  ["CCCN(CC(O)C(F)(F)F)C(=O)[C@H]1CCC2=Cc3c(cnn3-c3ccccc3)C[C@@]21C (stereo partly drawn)", "human GR (Homo sapiens)", 86],
  ["CN(C(=O)[C@H]1CCC2=Cc3c(cnn3-c3ccc(F)cc3)C[C@@]21C)C1CCCCC1", "human GR (Homo sapiens)", 38.5],
  ["CCCN(C(=O)[C@H]1CCC2=Cc3c(cnn3-c3ccc(F)cc3)C[C@@]21C)C(C)CC (stereo partly drawn)", "human GR (Homo sapiens)", 61.8],
  ["CCCN(CC1CCCO1)C(=O)[C@H]1CCC2=Cc3c(cnn3-c3ccc(F)cc3)C[C@@]21C (stereo partly drawn)", "human GR (Homo sapiens)", 41.5],
  ["CCCCCN(CCO)C(=O)[C@H]1CCC2=Cc3c(cnn3-c3ccc(F)cc3)C[C@@]21C", "human GR (Homo sapiens)", 84.7],
  ["C[C@]12Cc3cnn(-c4ccc(F)cc4)c3C=C1CC[C@@H]2C(=O)N(CCO)Cc1ccccc1", "human GR (Homo sapiens)", 67.4],
  ["CN(CC#N)C(=O)[C@H]1CCC2=Cc3c(cnn3-c3ccc(F)cc3)C[C@@]21C", "human GR (Homo sapiens)", 41],
  ["C[C@]12Cc3cnn(-c4ccc(F)cc4)c3C=C1CC[C@@H]2C(=O)N(CCO)Cc1cc(F)c(F)c(F)c1", "human GR (Homo sapiens)", 56],
  ["C[C@]12Cc3cnn(-c4ccc(F)cc4)c3C=C1CC[C@@H]2C(=O)N(CCO)Cc1cccc(F)c1", "human GR (Homo sapiens)", 56.3],
  ["CC(C)CN(C[C@H](C)O)C(=O)[C@H]1CCC2=Cc3c(cnn3-c3ccc(F)cc3)C[C@@]21C", "human GR (Homo sapiens)", 78.1],
  ["CC(C)CN(CC(O)C(F)(F)F)C(=O)[C@H]1CCC2=Cc3c(cnn3-c3ccccc3)C[C@@]21C (stereo partly drawn)", "human GR (Homo sapiens)", 83.2],
  ["CC1CN(C(=O)[C@H]2CCC3=Cc4c(cnn4-c4ccc(F)cc4)C[C@@]32C)CC(C)O1 (stereo partly drawn)", "human GR (Homo sapiens)", 11.8],
  ["C[C@]12Cc3cnn(-c4ccc(F)cc4)c3C=C1CC[C@@H]2C(=O)N(CCO)c1ccccc1", "human GR (Homo sapiens)", 18.2]
]}

###

tested-target: human GR (Homo sapiens)
Construct: U937 cells contain an endogenous glucocorticoid receptor (GR); endogenous in cells; host or cells: U937 cells stably transfected with the TNF-alpha promoter/beta-lactamase reporter
measurement-description: Transrepression Assay (GITAR), TNFα-β-lactamase reporter gene in U937 cells
Format: cell-based
condition-description: inflection point; U937 cells; Table 1; read-out: Transrepression U937 Cells GITAR IP
pEC50: −log10 of the molar value.
measure: pEC50

{"columns": ["compound", "measured-value"],
 "data": [
  ["COCCN(Cc1ccc(OC)cc1)C(=O)[C@H]1CCC2=Cc3c(cnn3-c3ccc(F)cc3)C[C@@]21C [Compound 45]", 6.80],
  ["C[C@]12Cc3cnn(-c4ccc(F)cc4)c3C=C1CC[C@@H]2C(=O)N(CCO)Cc1ccccc1CS(=O)(=O)c1ccccc1 [Compound 30]", 5.97],
  ["CC1CN(C(=O)[C@H]2CCC3=Cc4c(cnn4-c4ccc(F)cc4)C[C@@]32C)CC(C)O1 (stereo partly drawn) [Compound 17]", 5.74],
  ["C[C@]12Cc3cnn(-c4ccc(F)cc4)c3C=C1CC[C@@H]2C(=O)N1CCCCC1Cc1ccccc1 (stereo partly drawn) [Compound 22]", 5.70],
  ["CCCN(CCC)C(=O)[C@H]1CCC2=Cc3c(cnn3-c3ccc(F)cc3)C[C@@]21C [Compound 1]", 6.48],
  ["C[C@]12Cc3cnn(-c4ccccc4)c3C=C1CC[C@@H]2C(=O)N(CC1CC1)CC(O)C(F)(F)F (stereo partly drawn) [Compound 81]", 6.47],
  ["COc1ccccc1CCN(CC(O)C(F)(F)F)C(=O)[C@H]1CCC2=Cc3c(cnn3-c3ccc(F)cc3)C[C@@]21C (stereo partly drawn) [Compound 83]", 6.53],
  ["CN(CC(O)C(F)(F)F)C(=O)[C@H]1CCC2=Cc3c(cnn3-c3ccccc3)C[C@@]21C (stereo partly drawn) [Compound 75]", 6.74],
  ["Cc1ccc(CN(CCO)C(=O)[C@H]2CCC3=Cc4c(cnn4-c4ccc(F)cc4)C[C@@]32C)cc1F [Compound 27]", 5.79],
  ["CN(CC(O)C(F)(F)F)C(=O)[C@H]1CCC2=Cc3c(cnn3-c3ccccc3)C[C@@]21C (stereo partly drawn) [Compound 74]", 6.42],
  ["C[C@]12Cc3cnn(-c4ccc(F)cc4)c3C=C1CC[C@@H]2C(=O)NCc1ccc(Cl)cc1Cl [Compound 3]", 5.28],
  ["CC(C)CCN(CCC(C)C)C(=O)[C@H]1CCC2=Cc3c(cnn3-c3ccc(F)cc3)C[C@@]21C [Compound 8]", 6.09],
  ["CO[C@H](C)CN(C)C(=O)[C@H]1CCC2=Cc3c(cnn3-c3ccc(F)cc3)C[C@@]21C [Compound 89]", 5.46],
  ["CCCCN(CC)C(=O)[C@H]1CCC2=Cc3c(cnn3-c3ccc(F)cc3)C[C@@]21C [Compound 12]", 6.18],
  ["COC[C@H]1CCCN1C(=O)[C@H]1CCC2=Cc3c(cnn3-c3ccc(F)cc3)C[C@@]21C [Compound 43]", 6.41],
  ["CC(C)CN(CC(C)C)C(=O)[C@H]1CCC2=Cc3c(cnn3-c3ccc(F)cc3)C[C@@]21C [Compound 11]", 6.48],
  ["CCN(CC(O)C(F)(F)F)C(=O)[C@H]1CCC2=Cc3c(cnn3-c3ccccc3)C[C@@]21C (stereo partly drawn) [Compound 77]", 6.57],
  ["CN(CC(O)C(F)(F)F)C(=O)[C@H]1CCC2=Cc3c(cnn3-c3ccc(F)cc3)C[C@@]21C (stereo partly drawn) [Compound 70]", 6.56],
  ["C[C@]12Cc3cnn(-c4ccc(F)cc4)c3C=C1CC[C@@H]2C(=O)N(CC1CCC1)CC1CCCO1 (stereo partly drawn) [Compound 64]", 6.32],
  ["CCNC(=O)CN(CCc1ccccc1)C(=O)[C@H]1CCC2=Cc3c(cnn3-c3ccc(F)cc3)C[C@@]21C [Compound 24]", 6.39],
  ["C[C@]12Cc3cnn(-c4ccc(F)cc4)c3C=C1CC[C@@H]2C(=O)N(CCC#N)C1CC1 [Compound 14]", 5.80],
  ["C[C@]12Cc3cnn(-c4ccc(F)cc4)c3C=C1CC[C@@H]2C(=O)N1CCCC(=O)CC1 [Compound 15]", 5.47],
  ["CCCCN(CC=O)C(=O)[C@H]1CCC2=Cc3c(cnn3-c3ccc(F)cc3)C[C@@]21C [Compound 39]", 6.90],
  ["CC(C)CN(C)C(=O)[C@H]1CCC2=Cc3c(cnn3-c3ccc(F)cc3)C[C@@]21C [Compound 54]", 5.66],
  ["Cc1ccc(CCN(CC(O)CC(F)(F)F)C(=O)[C@H]2CCC3=Cc4c(cnn4-c4ccc(F)cc4)C[C@@]32C)cc1 (stereo partly drawn) [Compound 85]", 6.09],
  ["CN(CCOc1ccccc1)C(=O)[C@H]1CCC2=Cc3c(cnn3-c3ccc(F)cc3)C[C@@]21C [Compound 48]", 6.39],
  ["CCCN(CC1CC1)C(=O)[C@H]1CCC2=Cc3c(cnn3-c3ccc(F)cc3)C[C@@]21C [Compound 5]", 6.17],
  ["CN(CC#N)C(=O)[C@H]1CCC2=Cc3c(cnn3-c3ccc(F)cc3)C[C@@]21C [Compound 41]", 5.63],
  ["C[C@]12Cc3cnn(-c4ccc(F)cc4)c3C=C1CC[C@@H]2C(=O)N1CCCC(Cc2cccc(C(F)(F)F)c2)C1 (stereo partly drawn) [Compound 21]", 6.13],
  ["CCN(Cc1ccccc1)C(=O)[C@H]1CCC2=Cc3c(cnn3-c3ccc(F)cc3)C[C@@]21C [Compound 52]", 6.01]
]}
